Test: AUC in Sprague-Dawley rat plasma at 20 mg/kg, IP after 0.083 to 24 hrs by LC-MS/MS analysis
Format: ADME, organism-based
Parameters: dose 20 mg/kg, time 0.083-24 hrs, route ip
endpoint: AUC (ng·h/mL)
Numbers only, in ng·h/mL.

query: What value of AUC has been recorded for this entry: Cc1ncsc1-c1ccc([C@H](C)NC(=O)[C@@H]2C[C@@H](O)CN2C(=O)[C@@H](NC(=O)CCCCCCCCN2CCN(S(=O)(=O)c3ccc(NC(=O)NCc4cccnc4)cc3)CC2)C(C)(C)C)cc1
result: 1740

---

Assay: AUC in mouse plasma at 5 mg/kg, iv after 0.083 to 24 hrs by LC-MS/MS analysis
Assay type: ADME, organism-based
Set-up: time lower 0.083 hrs, dose 5 mg/kg, time upper 24 hrs, route iv
endpoint: AUC (ng·h/mL)
Answers are plain numbers, in ng·h/mL.

query: What value of AUC has been recorded for this entry: Cc1ncsc1-c1ccc([C@H](C)NC(=O)[C@@H]2C[C@@H](O)CN2C(=O)[C@@H](NC(=O)CCCCCCCCN2CCN(S(=O)(=O)c3ccc(NC(=O)NCc4cccnc4)cc3)CC2)C(C)(C)C)cc1
result: 477
